- TEST_DESCRIPTION: Plasma pharmacokinetics of II-38 and 2,4-DNP released from II-38
- Assay type: in vivo, Sprague-Dawley male rats
- ASSAY_CONTEXT: male, Sprague-Dawley, rat, in vivo, iv; single i.v. injection of II-38 1.6 mg/kg (eq. to 1 mg/kg 2,4-DNP), n = 2; read-out: Vss of II-38
READOUT_KIND: Vd
The reply must contain the numeric value and, after it, the unit.

Can you share its Vd? I mean this molecule: O=C(Oc1ccc([N+](=O)[O-])cc1[N+](=O)[O-])N1CCOCC1
1.86 L/kg

---

- TEST_DESCRIPTION: Plasma pharmacokinetics of II-38 and 2,4-DNP released from II-38
- Type: in vivo, Sprague-Dawley male rats
- ASSAY_CONTEXT: male, Sprague-Dawley, rat, in vivo, po, 25 mg/kg, oral II-38 eq. to 25 mg/kg of 2,4-DNP, methocel; read-out: t1/2 of II-38
READOUT_KIND: half-life (h)
Provide only the numeric value, understood in h.

Can you share its half-life? I mean this compound: O=C(Oc1ccc([N+](=O)[O-])cc1[N+](=O)[O-])N1CCOCC1
11

---

- TEST_DESCRIPTION: Plasma pharmacokinetics of II-38 and 2,4-DNP released from II-38
- Type: in vivo, Sprague-Dawley male rats
- ASSAY_CONTEXT: male, Sprague-Dawley, rat, in vivo, po, 25 mg/kg, oral II-38 eq. to 25 mg/kg of 2,4-DNP, methocel
READOUT_KIND: AUC (µg·h/mL)
Provide only the numeric value, understood in µg·h/mL.

Can you share its AUC? I mean this compound: O=C(Oc1ccc([N+](=O)[O-])cc1[N+](=O)[O-])N1CCOCC1
18.4

---

- TEST_DESCRIPTION: Plasma pharmacokinetics of II-38 and 2,4-DNP released from II-38
- Format: in vivo, Sprague-Dawley male rats
- ASSAY_CONTEXT: male, Sprague-Dawley, rat, in vivo, po, 25 mg/kg, oral II-38 eq. to 25 mg/kg of 2,4-DNP, PEG-400
READOUT_KIND: AUC (ng·h/mL)
Provide only the numeric value, understood in ng·h/mL.

Can you share its AUC? I mean this compound: O=C(Oc1ccc([N+](=O)[O-])cc1[N+](=O)[O-])N1CCOCC1 [II-38]
14600

---

- TEST_DESCRIPTION: Plasma pharmacokinetics of II-38 and 2,4-DNP released from II-38
- Type: in vivo, Sprague-Dawley male rats
- ASSAY_CONTEXT: male, Sprague-Dawley, rat, in vivo, po, 50 mg/kg, oral II-38 eq. 50 mg/kg of 2,4-DNP
READOUT_KIND: Cmax (ng/mL)
Provide only the numeric value, understood in ng/mL.

Can you share its Cmax? I mean this compound: O=C(Oc1ccc([N+](=O)[O-])cc1[N+](=O)[O-])N1CCOCC1 [II-38]
1900

---

- TEST_DESCRIPTION: Plasma pharmacokinetics of II-38 and 2,4-DNP released from II-38
- Type: in vivo, Sprague-Dawley male rats
- ASSAY_CONTEXT: male, Sprague-Dawley, rat, in vivo, po, 5 mg/kg, oral II-38 eq. to 5 mg/kg of 2,4-DNP
READOUT_KIND: AUC (ng·h/mL)
Provide only the numeric value, understood in ng·h/mL.

Can you share its AUC? I mean this compound: O=C(Oc1ccc([N+](=O)[O-])cc1[N+](=O)[O-])N1CCOCC1
15000

---

- TEST_DESCRIPTION: Plasma pharmacokinetics of II-38 and 2,4-DNP released from II-38
- Type: in vivo, Sprague-Dawley male rats
- ASSAY_CONTEXT: male, Sprague-Dawley, rat, in vivo, po, 25 mg/kg, oral II-38 eq. to 25 mg/kg of 2,4-DNP, methocel; read-out: % F of II-38
READOUT_KIND: bioavailability (%)
Provide only the numeric value, understood in %.

Can you share its bioavailability? I mean this compound: O=C(Oc1ccc([N+](=O)[O-])cc1[N+](=O)[O-])N1CCOCC1
31.6

---

- TEST_DESCRIPTION: Plasma pharmacokinetics of II-38 and 2,4-DNP released from II-38
- Format: in vivo, Sprague-Dawley male rats
- ASSAY_CONTEXT: male, Sprague-Dawley, rat, in vivo, iv, 1.6 mg/kg, single i.v. injection of II-38 1.6 mg/kg (eq. to 1 mg/kg 2,4-DNP), n = 2
READOUT_KIND: AUC (ng·h/mL)
Provide only the numeric value, understood in ng·h/mL.

Can you share its AUC? I mean this compound: O=C(Oc1ccc([N+](=O)[O-])cc1[N+](=O)[O-])N1CCOCC1
8600

---

- TEST_DESCRIPTION: Plasma pharmacokinetics of 2,4-DNP, i.v. and oral
- Type: in vivo, Sprague-Dawley male rats
- ASSAY_CONTEXT: male, Sprague-Dawley, rat, plasma, iv; 2,4-DNP single i.v. dose 1 mg/kg, n = 3; read-out: AUC (converted)
READOUT_KIND: AUC (ng·h/mL)
Provide only the numeric value, understood in ng·h/mL.

Can you share its AUC? I mean this compound: O=[N+]([O-])c1ccc(O)c([N+](=O)[O-])c1 [2,4-DNP, 2,4-dinitrophenol]
22400

---

- TEST_DESCRIPTION: Plasma pharmacokinetics of II-38 and 2,4-DNP released from II-38
- Type: in vivo, Sprague-Dawley male rats
- ASSAY_CONTEXT: male, Sprague-Dawley, rat, in vivo, po, 5 mg/kg, oral II-38 eq. to 5 mg/kg of 2,4-DNP; read-out: t1/2 of II-38
READOUT_KIND: half-life (h)
Provide only the numeric value, understood in h.

Can you share its half-life? I mean this compound: O=C(Oc1ccc([N+](=O)[O-])cc1[N+](=O)[O-])N1CCOCC1
15.2
